- Target: Cytochrome P450 2C19 (Homo sapiens)
- Assay: Cytochrome panel assay with activity outcomes
- Setup Conditions: recombinant CYP, pro-luciferin dealkylation, luminescence, p450-cyp2c19; series mostly up to 57.1 µM
About 5,800 (36%) of roughly 16,000 compounds were called active. Inconclusive results (about 23%) are left out. Calls come from the whole dose curve; as a rule, active = well fitted curve in the direction sought with a large enough effect; inconclusive = small, poorly fitted or top-dose-only effect, or effect the other way; inactive = no such curve, though single readings can be large or run the other way. The list shows a part of the results.
Outcomes: active, inactive

Smiles Code | Assigned Label
CC(C)NC[C@H](O)COc1cccc2ccccc12 | inactive
Cc1ccc(NC(=O)NNC(=O)Cn2nc(-c3ccccc3)c(-c3ccccc3)c(C#N)c2=O)cc1 | active
COc1cccc(NC(=O)c2cc(-c3cccnc3)nc3c(Cl)cccc23)c1 | active
CC(=O)N1CCN(c2ccccc2NC(=O)COc2ccc(Br)cc2)CC1 | active
Cc1ccc(-c2c(C#N)c(N)n(-c3ccccc3)c(=O)c2C#N)cc1 | inactive

###

- Target: Cytochrome P450 2C19 (Homo sapiens) (UniProt P33261)
- Sequence (P33261 whole entry, looked up): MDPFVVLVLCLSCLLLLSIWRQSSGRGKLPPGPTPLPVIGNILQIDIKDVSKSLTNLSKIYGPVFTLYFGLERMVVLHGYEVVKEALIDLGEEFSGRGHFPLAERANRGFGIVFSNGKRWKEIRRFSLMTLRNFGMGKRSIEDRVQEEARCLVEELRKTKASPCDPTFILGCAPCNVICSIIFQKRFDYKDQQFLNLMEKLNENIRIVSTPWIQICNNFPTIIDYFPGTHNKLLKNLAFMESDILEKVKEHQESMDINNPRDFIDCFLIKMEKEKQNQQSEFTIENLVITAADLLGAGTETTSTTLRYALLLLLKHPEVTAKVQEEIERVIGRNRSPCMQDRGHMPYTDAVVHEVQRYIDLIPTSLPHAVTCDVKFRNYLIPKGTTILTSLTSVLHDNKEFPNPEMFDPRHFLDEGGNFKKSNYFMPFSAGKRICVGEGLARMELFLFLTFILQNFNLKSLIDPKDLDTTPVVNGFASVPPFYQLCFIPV
- Assay: Cytochrome panel assay with activity outcomes
- Setup Conditions: recombinant CYP, pro-luciferin dealkylation, luminescence, p450-cyp2c19; series mostly up to 57.1 µM
In all, about 16,000 compounds went through this assay and about 5,800 (36%) were called active. About 23% were inconclusive and are not listed. The list shows a part of the results.
Measured Attribute: AC50

Molecule | Reported Measurement
O=C(N/N=C/C=C/c1ccc([N+](=O)[O-])cc1)c1cccs1 | inactive
Cc1cc(C)c(S(=O)(=O)Nc2ccccc2C(F)(F)F)c(C)c1 | 0.1 µM (active)
CCCCN(C)S(=O)(=O)c1ccc(C(=O)Nc2nnc(CSC)o2)cc1 | inactive
CN1CCN(c2ncc3nc(-c4cccc(C#N)c4)c(=O)n(C)c3n2)CC1 | inactive
Cc1nc2ccc(S(=O)(=O)NC(CC(C)C)C(=O)O)cc2s1 (centres undefined) | inactive
Fc1cc(Br)ccc1NC(=S)NCCc1ccccc1 | 1.58 µM (active)
COc1cccc(-c2cncnc2NCc2ccc(OC)cc2OC)c1 | 1.26 µM (active)
O=S(=O)(Nc1ccc2oc(-c3ccccc3)nc2c1)c1ccccc1 | 0.631 µM (active)
Cc1cc(C)c(S(=O)(=O)NNC(=O)C2CCN(Cc3ccccc3)CC2)c(C)c1 | inactive
O=C(Cn1cnc([N+](=O)[O-])c1)NCc1ccc(F)cc1 | inactive
CC1CCCC(C)N1C(=O)c1cc(-c2ccc(Cl)c(Cl)c2)on1 (centres undefined) | 11.2 µM (active)
Cc1nc2sccc2c(=O)n1-c1cccc(Cl)c1 | 0.794 µM (active)
COc1ccccc1CNc1ncncc1-c1ccccc1Cl | 1.26 µM (active)
Cc1ccc2nc(NC(=O)CSCC(=O)OCC(=O)c3ccc(Br)cc3)sc2c1 | 8.91 µM (active)
COc1ccc(CCN(C)Cc2ccc(OCc3ccccc3)c(OC)c2)cc1OC | inactive
COc1ccccc1CNc1ncncc1-c1ccccc1C | 3.98 µM (active)
CN(C(=O)c1c(O)c2ccccc2n(C)c1=O)c1ccccc1 | inactive
O=C(N/N=C/c1ccc(OCc2ccccc2)cc1)c1cccs1 | 2.51 µM (active)
CC(C)NC(=O)N1CCC2(CC1)CCN(C(=O)c1ccncc1)CC2 | inactive
CN1CCN(c2ncc3nc(-c4ccccc4)c(=O)n(CCc4ccccc4)c3n2)CC1 | inactive
COC(=O)N1CCC[C@@]2(CCN(C(=O)Nc3ccccc3)C2)C1 | inactive
Cc1nn(CC(=O)NCc2ccccc2Cl)c(C)c1[N+](=O)[O-] | 15.8 µM (active)
CN(C)c1ccc(/C=C2/C(=O)Nc3ccccc32)cc1 | inactive
C=CCNC(=S)N/N=C/c1ccc(OCc2ccccc2)cc1 | inactive
O=C(NNS(=O)(=O)c1ccc(Cl)cc1)C1CCN(Cc2ccccc2)CC1 | inactive
C[C@@H]1CCC[C@H](C)N1NC(=O)c1ccc(Cl)c(S(N)(=O)=O)c1 | inactive
COc1cc(/C=N/NC(=O)c2cccs2)ccc1OCc1ccccc1 | 1.41 µM (active)
CNc1nc(NCCOC23CC4CC(CC(C4)C2)C3)nc(OCC(F)(F)F)n1 | 1.41 µM (active)
Cc1nn(CC(=O)NCc2ccccc2)c(C)c1[N+](=O)[O-] | inactive
